- SYSTEM_TESTED: recombinant human ERβ (Homo sapiens, UniProt Q92731)
- Construct: purchased PanVera Corporation (Madison, Wis.); host or cells: baculovirus-mediated expression system
- Sequence (Q92731 whole entry): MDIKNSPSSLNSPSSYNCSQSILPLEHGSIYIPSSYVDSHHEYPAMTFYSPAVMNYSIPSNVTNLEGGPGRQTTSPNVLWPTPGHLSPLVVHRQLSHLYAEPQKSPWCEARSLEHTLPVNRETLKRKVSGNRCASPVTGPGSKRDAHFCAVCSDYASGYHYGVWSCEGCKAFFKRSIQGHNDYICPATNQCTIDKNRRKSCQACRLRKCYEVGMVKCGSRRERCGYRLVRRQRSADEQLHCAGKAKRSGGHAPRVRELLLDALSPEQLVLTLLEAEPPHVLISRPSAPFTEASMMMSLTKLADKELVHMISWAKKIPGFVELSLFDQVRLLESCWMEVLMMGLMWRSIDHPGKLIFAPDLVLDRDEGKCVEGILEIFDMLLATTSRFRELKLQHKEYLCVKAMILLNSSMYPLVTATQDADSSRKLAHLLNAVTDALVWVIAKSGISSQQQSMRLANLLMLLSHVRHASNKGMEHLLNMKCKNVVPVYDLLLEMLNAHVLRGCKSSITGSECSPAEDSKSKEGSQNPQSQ
- EXPERIMENT: ERβ binding assay: competition of [3H]E2 binding by competing estrogens
- TEST_CONTEXT: read-out: ERβ IC50
pIC50: −log10 of the molar value.
EXPERIMENTAL_ENDPOINT: pIC50

> print(dat)
                                   compound                             system.tested  meas.value
1  CCOc1cc2c(cc1O)CCC1C2CCC2(C)C(O)CCC12 (stereo not drawn) [2-Ethoxy-E2, 2-Ethoxyestradiol]  recombinant human ERβ (Homo sapiens, UniProt Q92731)      < 6.00
2  CC12CC(O)C3c4ccc(O)cc4CCC3C1CCC2O (stereo not drawn) [11β-OH-E2, 11β-Hydroxyestradiol]  recombinant human ERβ (Homo sapiens, UniProt Q92731)      < 6.00

Incoming: Which pIC50 is listed for C[C@]12C[C@@H](O)[C@@H]3c4ccc(O)cc4CC[C@H]3[C@@H]1CCC2=O [11α-OH-E1, 11α-Hydroxyestrone] ?
Outgoing: < 6.00
